Items are presented alongside their recorded IC50.
Measurement target: VIM-1 (Pseudomonas aeruginosa (strain ATCC 15692 / DSM 22644 / CIP 104116 / JCM 14847 / LMG 12228 / 1C / PRS 101 / PAO1), UniProt A0A0F7KYQ8)
Method description: Enzyme activity: determination of IC50, fluorescence assay with CCF2-FA substrate (VIM-1)
Type: biochemical
Measurement parameters: VIM-1 enzyme, CCF2-FA substrate; read-out: VIM-1 IC50
The answer is to be given in nM; state only the numeric part.

Recorded results for 4 compounds are shown here.
                                 mol_smiles  parameter  unit_string  test_result
0  Cn1cncc1CN1CCC(c2ccc(-c3cccc(S(N)(=O)=O)c3-c3nnn[nH]3)cc2)CC1       IC50           nM         1030
1  N#Cc1ccc2ncc(-c3cccc(S(N)(=O)=O)c3-c3nnn[nH]3)n2c1       IC50           nM         15.3
2  N=C(NC1CNC1)c1ccc(-c2ccc(C(F)(F)F)c(S(N)(=O)=O)c2-c2nn[nH]n2)cc1       IC50           nM         5.02
3  Cc1nc(N)ccc1Cc1cccc(S(N)(=O)=O)c1-c1nn[nH]n1       IC50           nM         8.98

The compound listed as NC[C@H]1CC[C@@H](c2ccc(C(F)(F)F)c(S(N)(=O)=O)c2-c2nnn[nH]2)CC1 has a reported IC50 of 12.2

The compound listed as NS(=O)(=O)c1c(C(F)(F)F)ccc(-c2cccc(N3CCNCC3)c2)c1-c1nnn[nH]1 has a reported IC50 of 1.26

The compound listed as NS(=O)(=O)c1cccc(-c2cccc3ccoc23)c1-c1nn[nH]n1 has a reported IC50 of 52.9

The compound listed as NS(=O)(=O)c1c(C(F)(F)F)ccc(-c2ccc(C3CCN(C[C@@H]4CNCCO4)CC3)cc2)c1-c1nnn[nH]1 has a reported IC50 of 20.7

====

Measurement target: IMP-1 (Serratia marcescens, UniProt P52699)
Sequence (P52699 whole entry, looked up): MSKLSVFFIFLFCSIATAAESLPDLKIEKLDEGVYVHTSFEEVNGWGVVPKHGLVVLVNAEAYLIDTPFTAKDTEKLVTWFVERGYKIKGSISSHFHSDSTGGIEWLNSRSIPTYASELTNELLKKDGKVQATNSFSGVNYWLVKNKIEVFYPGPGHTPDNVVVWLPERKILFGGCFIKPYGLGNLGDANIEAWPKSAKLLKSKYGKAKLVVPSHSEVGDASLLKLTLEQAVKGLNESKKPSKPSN
Method description: biochemical
Assay type: biochemical
Measurement parameters: IMP-1 enzyme, CCF2-FA fluorescence assay; read-out: IMP-1 IC50
Threshold 0.02 µM. IC50 below it: label 1. IC50 at it or above: label 0.

Example cases with answers are listed next.
In [3]: df
Out[3]:
                                   compound  category_label
0  NS(=O)(=O)c1cccc(-c2ccnc3ccccc23)c1-c1nn[nH]n1         label 0
1  NS(=O)(=O)c1c(CCC2CCNCC2)ccc(-c2ccc(C3CCNCC3)cc2)c1-c1nn[nH]n1         label 1
2  CC(C)c1ccc(C(F)(F)F)c(S(N)(=O)=O)c1-c1nnn[nH]1         label 1
3  NS(=O)(=O)c1cccc(-c2ccc(NCCO)nc2)c1-c1nn[nH]n1         label 0
4  NS(=O)(=O)c1c(CC[C@H]2CC[C@H](N)CC2)ccc(-c2ccc(C3CCNCC3)cc2)c1-c1nn[nH]n1         label 1
5  NS(=O)(=O)c1c(CC2CCNCC2(F)F)ccc(-c2ccc(C3CCNCC3)cc2)c1-c1nn[nH]n1 (centres unmarked)         label 1
6  C[N+]1(C)CC(c2ccc(-c3ccc(C(F)(F)F)c(S(N)(=O)=O)c3-c3nn[nH]n3)cc2)C1         label 1

Continue with the compound presented below.
q: Is IC50 of NS(=O)(=O)c1cccc(C(F)(F)F)c1-c1nnn[nH]1 strictly below 0.02 µM?
a: label 0

====

Measurement target: IMP-1 (Serratia marcescens)
Method description: biochemical
Format: biochemical
Measurement parameters: IMP-1 enzyme, CCF2-FA fluorescence assay; read-out: IMP-1 IC50
Classify by IC50. Ranges: low band: < 40 nM; middle band: ≥ 40 nM and < 200 nM; high band: ≥ 200 nM

Example cases with answers are listed next.
>>> df
                                   compound  category_label
0  Nc1nc2cccc(-c3cccc(S(N)(=O)=O)c3-c3nn[nH]n3)c2[nH]1       high band
1  Cc1ccc(-c2cc(-c3ccc4c(c3)CNC4=O)cc(S(N)(=O)=O)c2-c2nn[nH]n2)cc1        low band
2  Nc1ccnc2ccc(-c3ccc(C(F)(F)F)c(S(N)(=O)=O)c3-c3nnn[nH]3)cc12        low band
3  CN(C)CCCNCc1ccc(-c2cccc(S(N)(=O)=O)c2-c2nnn[nH]2)cc1       high band
4  NS(=O)(=O)c1c(CC2CCNCC2)ccc(-c2ccc(C3CCN(CC4CNC4)CC3)cc2)c1-c1nn[nH]n1        low band
5  Nc1n[nH]c2cc(-c3ccc(C(F)(F)F)c(S(N)(=O)=O)c3-c3nnn[nH]3)ccc12        low band
6  NCCCc1ccc(-c2cccc(S(N)(=O)=O)c2-c2nnn[nH]2)cc1       high band
7  NS(=O)(=O)c1cccc(-c2ccc(CNC[C@@]3(O)CCOC3)cc2)c1-c1nnn[nH]1       high band

q: Each compound maps to one class by IC50. Which class for N=C(N)NC1Cc2ccc(-c3ccc(C(F)(F)F)c(S(N)(=O)=O)c3-c3nn[nH]n3)cc2C1 (stereo not shown) ?
a: low band

q: Each compound maps to one class by IC50. Which class for NS(=O)(=O)c1cccc(-c2nc(-c3ccncc3)cs2)c1-c1nnn[nH]1 ?
a: middle band

q: Each compound maps to one class by IC50. Which class for NC(=O)c1nccc2cc(-c3cccc(S(N)(=O)=O)c3-c3nn[nH]n3)ccc12 ?
a: middle band

====

Measurement target: IMP-1 (Serratia marcescens)
Method description: biochemical
Assay type: biochemical
Measurement parameters: IMP-1 enzyme, CCF2-FA substrate; read-out: IMP-1 IC50
Items are presented alongside their recorded log10 IC50.
// do not treat as linear: log10 of IC50, unit µM

Recorded results for 8 compounds are shown here.
>>> print(df.to_string())
                                   compound  test_result
0  NS(=O)(=O)c1cccc(C2CCCc3ncccc32)c1-c1nn[nH]n1 (stereo not shown)        -0.12
1  NS(=O)(=O)c1c(C(F)(F)F)ccc(-c2cnc3ccoc3c2)c1-c1nnn[nH]1        -2.45
2  CC(C)[C@@H](N)CN1CCC(c2ccc(-c3cccc(S(N)(=O)=O)c3-c3nnn[nH]3)cc2)CC1        -1.94
3  Cc1n[nH]c2c1CN(c1ccc(C(F)(F)F)c(S(N)(=O)=O)c1-c1nnn[nH]1)CC2        -2.11
4  NS(=O)(=O)c1cccc(-c2cccc3c2OCC3=O)c1-c1nn[nH]n1        -0.25
5  NS(=O)(=O)c1c(C(F)(F)F)ccc(-c2cnc(N3CCNCC3)nc2)c1-c1nnn[nH]1        -1.91
6  NS(=O)(=O)c1c(C(F)(F)F)ccc(-c2cccc3c2OCCN3)c1-c1nnn[nH]1        -2.61
7  NS(=O)(=O)c1cccc(-c2ccc(NCC3CCN3)nc2)c1-c1nnn[nH]1 (stereo not shown)        -0.22

The compound listed as CN1CCC2(CCN(c3ccc(-c4cccc(S(N)(=O)=O)c4-c4nnn[nH]4)cn3)C2)C1 (stereo not shown) has a reported log10 IC50 of -0.60

The compound listed as Nc1ncc(CCc2ccc(C(F)(F)F)c(S(N)(=O)=O)c2-c2nn[nH]n2)cc1CO has a reported log10 IC50 of -2.63

The compound listed as Nc1nc2nccc(-c3ccc(C(F)(F)F)c(S(N)(=O)=O)c3-c3nnn[nH]3)c2[nH]1 has a reported log10 IC50 of -2.39

The compound listed as NS(=O)(=O)c1c(C[C@H]2CC[C@H](N)CC2)ccc(-c2ccc(C3CCNC3)cc2)c1-c1nn[nH]n1 (stereo partly shown) has a reported log10 IC50 of -1.76

The compound listed as NC1CCC(N[C@H]2CC[C@H](c3ccc(C(F)(F)F)c(S(N)(=O)=O)c3-c3nnn[nH]3)CC2)CC1 (stereo partly shown) [Example 690] has a reported log10 IC50 of -1.12

The compound listed as NS(=O)(=O)c1cccc(-c2cccc3ccoc23)c1-c1nn[nH]n1 has a reported log10 IC50 of -0.58

The compound listed as NCc1ccc(-c2ccc(CC3CCNCC3)c(S(N)(=O)=O)c2-c2nn[nH]n2)cc1 has a reported log10 IC50 of -0.56

The compound listed as CC(C)(O)C1CN(c2ccc(-c3cccc(S(N)(=O)=O)c3-c3nnn[nH]3)cn2)C1 has a reported log10 IC50 of -1.06

====

Measurement target: NDM-1 (Klebsiella pneumoniae)
Sequence (C7C422 whole entry, looked up, species assumed): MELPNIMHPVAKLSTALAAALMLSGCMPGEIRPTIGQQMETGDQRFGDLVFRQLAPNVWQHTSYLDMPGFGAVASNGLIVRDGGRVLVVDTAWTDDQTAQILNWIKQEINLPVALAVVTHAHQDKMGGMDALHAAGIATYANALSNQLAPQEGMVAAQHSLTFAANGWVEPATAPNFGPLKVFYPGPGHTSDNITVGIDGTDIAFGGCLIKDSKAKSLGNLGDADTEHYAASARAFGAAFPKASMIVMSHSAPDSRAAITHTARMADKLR
Method description: biochemical
Assay type: biochemical
Measurement parameters: fluorescence assay with CCF2-FA substrate; read-out: NDM-1 IC50
Items are presented alongside their recorded IC50.
In your response, put the unit directly after the numeric value.

Recorded results for 3 compounds are shown here.
                                 mol_smiles             measurement_target  parameter  test_result
0  NS(=O)(=O)c1nccc(-c2ccncc2)c1-c1nnn[nH]1  NDM-1 (Klebsiella pneumoniae)       IC50       248 nM
1  NS(=O)(=O)c1c(C(F)(F)F)ccc(N2CCN(CCO)CC2)c1-c1nnn[nH]1  NDM-1 (Klebsiella pneumoniae)       IC50      22.5 nM
2  NS(=O)(=O)c1cccc(-c2ccc(C3(C(F)(F)F)OCCO3)nc2)c1-c1nn[nH]n1  NDM-1 (Klebsiella pneumoniae)       IC50         2 nM

The compound listed as NS(=O)(=O)c1cccc(-c2cnc(NCCO)nc2)c1-c1nnn[nH]1 has a reported IC50 of 6.55 nM
